# Test system: EKVX NSCLC
# EXPERIMENTAL_DETAILS: NCI tumour cell line growth inhibition, 48 h
Recorded measurements of TGI, one per entry
READOUT: TGI

[[record]]
compound = "CC(C)(C)O/C=C1/C(=O)OC2C[C@@H](O[Si](C)(C)C(C)(C)C)CC12 (stereo partly specified)"
readout = "TGI"
experimental_result = "> 100 µM"

[[record]]
compound = "COC(=O)C(C)NP(=O)(N1CC1)N1CC1 (stereo unspecified)"
readout = "TGI"
experimental_result = "> 100 µM"

[[record]]
compound = "O=C1CC(NC(=O)C(F)(F)F)c2c1csc2Br (stereo unspecified)"
readout = "TGI"
experimental_result = "38.2 µM"

[[record]]
compound = "c1ccc2c(C3CCN(CCN4CCOCC4)C3)c[nH]c2c1 (stereo unspecified)"
readout = "TGI"
experimental_result = "> 100 µM"

[[record]]
compound = "N=c1oc2ccc([N+](=O)[O-])cc2cc1C(=O)NCc1ccccc1"
readout = "TGI"
experimental_result = "> 100 µM"

[[record]]
compound = "COc1ccc(CN(C)c2ccc(CO)c(Cl)c2)cc1"
readout = "TGI"
experimental_result = "> 91.6 µM"

[[record]]
compound = "CC1(C)C2CCC3=C(CCC4(C)C5C[C@](C)(C(=O)O)CC[C@]5(C)CC[C@]34C)[C@@]2(C)CC[C@@H]1O (stereo partly specified)"
readout = "TGI"
experimental_result = "53 µM"

[[record]]
compound = "Cc1ccc2c(c1)C(=O)/C(=N/Nc1ccc(Cl)cc1)CCO2"
readout = "TGI"
experimental_result = "> 100 µM"

[[record]]
compound = "C=CC1(C(=O)O)CCC(C(C)(C)C)CC1 (stereo unspecified)"
readout = "TGI"
experimental_result = "> 100 µM"

[[record]]
compound = "CC(C)(C#N)c1cc(Cn2cncn2)cc(C(C)(C)C#N)c1"
readout = "TGI"
experimental_result = "> 10000 µM"

[[record]]
compound = "COCC(N=CN1CCCc2ccccc2[C@@H]1CCCCl)C(C)(C)C (stereo partly specified)"
readout = "TGI"
experimental_result = "88.9 µM"


====

# System: COLO 205 colon
# EXPERIMENTAL_DETAILS: NCI tumour cell line growth inhibition, 48 h
READOUT: TGI

[[record]]
compound = "Cc1nc2sc(C(=O)Nc3cccc(Cl)c3C)c(N)c2cc1C(=O)/C=C/c1ccccc1"
readout = "TGI"
experimental_result = "2.39 µM"

[[record]]
compound = "CCCCc1c2c(nc3c1CCC/C3=C\\c1ccccc1)C(=O)CCC2"
readout = "TGI"
experimental_result = "48.6 µM"

[[record]]
compound = "COc1cc(OCc2ccc3nc(-c4ccccc4)c(Cl)nc3c2)cc(OC)c1OC"
readout = "TGI"
experimental_result = "> 100 µM"

[[record]]
compound = "CCOC(=O)C(Cl)(NC(=O)NC(Cl)(C(=O)OCC)C(F)(F)F)C(F)(F)F (stereo not drawn)"
readout = "TGI"
experimental_result = "> 100 µM"

[[record]]
compound = "CCNC(=O)CCN(C(=O)O)S(=O)(=O)c1ccc(NC(=O)c2ccccc2)cc1"
readout = "TGI"
experimental_result = "> 100 µM"

[[record]]
compound = "CC(=O)Oc1cc2c(n(C)c1=O)-c1ccccc1C2"
readout = "TGI"
experimental_result = "> 100 µM"

[[record]]
compound = "Ic1ncnc2c1ncn2C1CCCO1 (stereo not drawn)"
readout = "TGI"
experimental_result = "> 100 µM"

[[record]]
compound = "Cn1ccnc1CC(C)(O)c1ccccc1 (stereo not drawn)"
readout = "TGI"
experimental_result = "> 100 µM"

[[record]]
compound = "C=C1C(=O)OC2/C=C(\\CO)C3OC3C3OC3(C)CC(OC(=O)/C(=C/C)CO)C12 (stereo not drawn)"
readout = "TGI"
experimental_result = "> 100 µM"

[[record]]
compound = "CC(=O)c1c(C)[nH]c(-c2nc3ccc(N4CCN(C)CC4)cc3[nH]2)c1-c1ccc(OCC2CCOCC2)cc1"
readout = "TGI"
experimental_result = "4.65 µM"

[[record]]
compound = "COc1ccc(Nc2nnc(CCCCCCCCc3nnc(Nc4ccc(OC)cc4)o3)o2)cc1"
readout = "TGI"
experimental_result = "> 100 µM"

[[record]]
compound = "CCN(CC)CC(O)CNc1ccc(NCC2CO2)c2c1C(=O)c1ccccc1C2=O (stereo not drawn)"
readout = "TGI"
experimental_result = "4.38 µM"

[[record]]
compound = "CCOC(=O)C(C(=O)OCC)=C1NC2(c3ccccc3Nc3ccc(C)cc32)C(C#N)S1 (stereo not drawn)"
readout = "TGI"
experimental_result = "14.6 µM"

[[record]]
compound = "COC(=O)C(Cc1c[nH]c2ccccc12)N=C1Nc2ccncc2S(=O)(=O)N1c1ccccc1 (stereo not drawn)"
readout = "TGI"
experimental_result = "33.9 µM"

[[record]]
compound = "COC(=O)C1C(C(=O)OC)C2(OC)c3ccccc3-c3ccccc3C12 (stereo not drawn)"
readout = "TGI"
experimental_result = "31.3 µM"

[[record]]
compound = "O=[N+]([O-])c1cc(Cl)c(Cl)c([N+](=O)[O-])c1Cl"
readout = "TGI"
experimental_result = "2.91 µM"

[[record]]
compound = "COc1cc(/C=C(\\C#N)c2nc3ccccc3o2)ccc1O"
readout = "TGI"
experimental_result = "33 µM"

[[record]]
compound = "COc1ccccc1N1C(=O)/C(=C/c2ccc(N(CCC#N)CCC#N)cc2C)N=C1c1cc([N+](=O)[O-])ccc1Cl"
readout = "TGI"
experimental_result = "> 100 µM"

[[record]]
compound = "Cc1[nH]c2ccccc2c1C1Cc2ccccc2N1C(=O)/C=C\\C(=O)O (stereo not drawn)"
readout = "TGI"
experimental_result = "> 100 µM"

[[record]]
compound = "O=c1[nH]n(Cc2ccccc2Cl)c2ccc([N+](=O)[O-])cc12"
readout = "TGI"
experimental_result = "> 100 µM"

[[record]]
compound = "CC(=O)C(=[N+]=[N-])C(=O)NCC#N"
readout = "TGI"
experimental_result = "> 10 µM"

[[record]]
compound = "CC(=O)c1cccc(N2COC(C)(C)c3nc4ccccc4n3C2)c1"
readout = "TGI"
experimental_result = "> 100 µM"

[[record]]
compound = "ClC1(Cl)C(c2ccccc2)C1c1ccccc1 (stereo not drawn)"
readout = "TGI"
experimental_result = "> 100 µM"

[[record]]
compound = "OC(CCN1CCCCC1)(c1ccccc1)c1ccccc1"
readout = "TGI"
experimental_result = "> 100 µM"

[[record]]
compound = "COc1cc(C2SCC(=O)N2c2ccccc2Cl)cc(OC)c1OC (stereo not drawn)"
readout = "TGI"
experimental_result = "> 100 µM"

[[record]]
compound = "C/C1=C/C(C)CC(C)OC(=O)C(C)NC(=O)C(Cc2ccc(O)c(I)c2)N(C)C(=O)CNC(=O)C(C)C1 (stereo not drawn)"
readout = "TGI"
experimental_result = "> 100 µM"

[[record]]
compound = "CC(=O)C(I(OS(=O)(=O)c1ccc(C)cc1)c1ccccc1)=P(c1ccccc1)(c1ccccc1)c1ccccc1"
readout = "TGI"
experimental_result = "31.4 µM"

[[record]]
compound = "CC[C@H](NC(=O)[C@H](C)NC)C(=O)N1C[C@@H](O)C[C@H]1Cc1c(-c2[nH]c3cc(F)ccc3c2C[C@@H]2C[C@H](O)CN2C(=O)[C@H](CC)NC(=O)[C@H](C)NC)[nH]c2cc(F)ccc12"
readout = "TGI"
experimental_result = "> 100 µM"

[[record]]
compound = "CCCCCCCCC[C@@H]1CC(=O)OCC2OC(O[C@H](CCCCCCCCC)CC(=O)OCC3OC(O[C@H](CCCCCCCCC)CC(=O)OCC4OC(O1)C(O)C(O)C4O)C(O)C(O)C3O)C(O)C(O)C2O (stereo partly drawn)"
readout = "TGI"
experimental_result = "8.3 µM"

[[record]]
compound = "CC1=NN(C(=O)CC(=O)Nc2ccc(C)cc2)C(=O)C1N=Nc1ccc(C(=O)O)cc1 (stereo not drawn)"
readout = "TGI"
experimental_result = "> 100 µM"

[[record]]
compound = "Cc1c(C)c2c(c(N)c1C#N)C(=O)N(CCc1ccccc1)C2=O"
readout = "TGI"
experimental_result = "> 100 µM"

[[record]]
compound = "Cc1cc(I)cc(CN(C)CCCN2CCSCC2)c1O"
readout = "TGI"
experimental_result = "55.3 µM"

[[record]]
compound = "COc1ccc([N+](=O)[O-])c2c(NCCCN(C)C)c3ccccc3nc12"
readout = "TGI"
experimental_result = "0.26 µM"


Source listed as PubChem BioAssay (NCI).
